pIC50: −log10 of the molar value.
Entries with reported pIC50 on human MAO-B (Homo sapiens, UniProt P27338)
Sequence (P27338 whole entry): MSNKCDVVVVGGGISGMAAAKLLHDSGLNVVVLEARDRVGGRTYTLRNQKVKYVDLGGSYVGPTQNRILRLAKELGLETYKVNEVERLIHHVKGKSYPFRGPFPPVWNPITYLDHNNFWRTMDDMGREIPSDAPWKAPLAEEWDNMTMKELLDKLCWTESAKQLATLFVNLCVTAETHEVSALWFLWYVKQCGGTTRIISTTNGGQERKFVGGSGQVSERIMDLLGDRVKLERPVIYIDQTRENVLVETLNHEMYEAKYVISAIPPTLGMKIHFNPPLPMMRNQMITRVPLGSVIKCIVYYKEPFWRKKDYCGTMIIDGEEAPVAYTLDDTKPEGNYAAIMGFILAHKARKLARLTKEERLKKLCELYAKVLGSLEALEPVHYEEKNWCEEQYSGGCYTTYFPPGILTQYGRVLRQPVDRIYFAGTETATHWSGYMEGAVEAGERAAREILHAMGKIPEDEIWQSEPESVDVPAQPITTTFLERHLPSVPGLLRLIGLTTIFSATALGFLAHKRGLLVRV

MOLECULE: O=C1NCCc2cc(OCc3cccc(F)c3)ccc21
TEST SYSTEM: human MAO-B (Homo sapiens, UniProt P27338)
pIC50: 6.98

MOLECULE: NC(=O)CN1CCc2cc(OCc3cccc(F)c3)ccc2C1=O
TEST SYSTEM: human MAO-B (Homo sapiens, UniProt P27338)
pIC50: 8.10

MOLECULE: N#CCN1CCc2cc(OCc3cccc(F)c3)ccc2C1=O
TEST SYSTEM: human MAO-B (Homo sapiens, UniProt P27338)
pIC50: 6.81

MOLECULE: CC(C)(C(N)=O)N1CCc2cc(OCc3ccc(F)cc3)ccc2C1=O
TEST SYSTEM: human MAO-B (Homo sapiens, UniProt P27338)
pIC50: 5.95

MOLECULE: C[C@H](C(N)=O)N1CCc2cc(OCc3ccc(F)cc3)ccc2C1=O
TEST SYSTEM: human MAO-B (Homo sapiens, UniProt P27338)
pIC50: 7.92

MOLECULE: C[C@@H](C(N)=O)N1CCc2cc(OCc3ccc(F)cc3)ccc2C1=O
TEST SYSTEM: human MAO-B (Homo sapiens, UniProt P27338)
pIC50: 7.74

MOLECULE: CC(CO)N1CCc2cc(OCc3cccc(F)c3)ccc2C1=O (centres unmarked)
TEST SYSTEM: human MAO-B (Homo sapiens, UniProt P27338)
pIC50: 7.13

MOLECULE: NC(=O)[C@H](CO)N1CCc2cc(OCc3ccc(F)cc3)ccc2C1=O
TEST SYSTEM: human MAO-B (Homo sapiens, UniProt P27338)
pIC50: 7.70

MOLECULE: NC(=O)CCN1CCc2cc(OCc3cccc(F)c3)ccc2C1=O
TEST SYSTEM: human MAO-B (Homo sapiens, UniProt P27338)
pIC50: 6.41

MOLECULE: CC(C(N)=O)N1CCc2cc(OCc3cccc(F)c3)ccc2C1=O (racemic)
TEST SYSTEM: human MAO-B (Homo sapiens, UniProt P27338)
pIC50: 7.92

MOLECULE: COCC(C)N1CCc2cc(OCc3cccc(F)c3)ccc2C1=O (centres unmarked)
TEST SYSTEM: human MAO-B (Homo sapiens, UniProt P27338)
pIC50: 7.20

* * *

Below: a set of entries, each annotated with reported pIC50.
biological target: human MAO-A (Homo sapiens); construct: expressed in transfected cells; host or cells: EBNA cells (transient transfection); cell membranes used; experiment: MAO-A enzymatic activity, spectrophotometric assay (tyramine, Amplex Red) on membranes of transfected EBNA cells; type: biochemical
Sequence (P21397 whole entry): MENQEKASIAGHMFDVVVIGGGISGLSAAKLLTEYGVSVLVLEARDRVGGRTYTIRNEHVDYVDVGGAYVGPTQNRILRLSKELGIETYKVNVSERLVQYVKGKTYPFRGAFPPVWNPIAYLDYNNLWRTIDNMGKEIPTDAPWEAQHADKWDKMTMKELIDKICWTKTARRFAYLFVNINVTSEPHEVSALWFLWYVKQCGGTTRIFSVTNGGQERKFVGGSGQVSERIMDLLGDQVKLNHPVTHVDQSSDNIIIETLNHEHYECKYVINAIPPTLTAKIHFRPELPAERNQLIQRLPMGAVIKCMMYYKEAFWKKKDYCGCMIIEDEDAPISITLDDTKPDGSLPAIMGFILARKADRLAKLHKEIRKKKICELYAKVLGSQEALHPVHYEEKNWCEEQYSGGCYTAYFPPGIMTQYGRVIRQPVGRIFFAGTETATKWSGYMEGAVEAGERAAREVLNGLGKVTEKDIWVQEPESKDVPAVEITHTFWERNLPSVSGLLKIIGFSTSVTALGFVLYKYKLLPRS
pIC50: −log10 of the molar value.
READOUT KIND: pIC50

MOLECULE: COCC(C)N1CCc2cc(OCc3cccc(F)c3)ccc2C1=O (stereo not shown) [Example 14]
MEASURED VALUE: 5.37

MOLECULE: C[C@@H](C(N)=O)N1CCc2cc(OCc3ccc(F)cc3)ccc2C1=O [Example 21]
MEASURED VALUE: < 5.00

MOLECULE: C[C@H](C(N)=O)N1CCc2cc(OCc3ccc(F)cc3)ccc2C1=O [Example 20]
MEASURED VALUE: < 5.00

MOLECULE: NC(=O)[C@H](CO)N1CCc2cc(OCc3ccc(F)cc3)ccc2C1=O [Example 22]
MEASURED VALUE: < 5.00
